target.system: recombinant N-terminal GST-tagged human Rho kinase 1 (ROCK1, amino acids 1-535) (Homo sapiens)
Construct: ROCK1, amino acids 1-535; purchased Invitrogen Inc. PV-3691
Sequence (Q13464 1-535): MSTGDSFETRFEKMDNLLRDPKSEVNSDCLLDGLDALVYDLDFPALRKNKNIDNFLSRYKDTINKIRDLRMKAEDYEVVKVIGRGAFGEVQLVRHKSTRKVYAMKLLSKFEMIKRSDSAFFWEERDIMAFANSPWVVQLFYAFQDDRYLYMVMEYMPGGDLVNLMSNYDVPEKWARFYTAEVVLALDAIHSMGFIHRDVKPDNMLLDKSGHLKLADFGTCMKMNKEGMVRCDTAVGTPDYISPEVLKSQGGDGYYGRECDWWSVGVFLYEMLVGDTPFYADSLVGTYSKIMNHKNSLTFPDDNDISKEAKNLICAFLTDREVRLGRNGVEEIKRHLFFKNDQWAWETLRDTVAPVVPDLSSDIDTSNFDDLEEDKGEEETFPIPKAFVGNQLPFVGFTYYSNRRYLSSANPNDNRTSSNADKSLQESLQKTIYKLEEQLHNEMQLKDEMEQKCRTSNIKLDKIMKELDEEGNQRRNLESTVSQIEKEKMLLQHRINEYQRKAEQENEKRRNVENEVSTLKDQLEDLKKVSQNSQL
measurement.notes: In vitro Rho kinase assay (luciferase-based ATP consumption), ROCK1
Format: biochemical
measurement.parameters: recombinant GST-tagged human ROCK1, luciferase-based ATP consumption; read-out: ROCK1 IC50
quantity: IC50

[
  {
    "compound": "CC(=O)Oc1cccc(C(=O)NCc2ccc3sc(-c4ccnc(N)n4)c(C)c3c2)c1",
    "measurement": "< 5 µM"
  },
  {
    "compound": "Cc1c(-c2ccnc(N)n2)sc2ccc(C(=O)N3CCC(N)C3)cc12 (stereo not shown)",
    "measurement": "< 5 µM"
  },
  {
    "compound": "CCOC(=O)CC(=O)NCc1ccc2sc(-c3ccnc(N)n3)c(C)c2c1",
    "measurement": "> 5 µM"
  },
  {
    "compound": "CCN(CC)c1ccc(C(=O)NCc2ccc3sc(-c4ccnc(N)n4)c(C)c3c2)cc1",
    "measurement": "> 5 µM"
  }
]
